- targetUnderTest: Human IP6K1 (Homo sapiens)
- Construct: GST (N, cleaved yes); made in house; host or cells: C43 E. coli, pGEX-6P-2
- Sequence (Q92551 whole entry): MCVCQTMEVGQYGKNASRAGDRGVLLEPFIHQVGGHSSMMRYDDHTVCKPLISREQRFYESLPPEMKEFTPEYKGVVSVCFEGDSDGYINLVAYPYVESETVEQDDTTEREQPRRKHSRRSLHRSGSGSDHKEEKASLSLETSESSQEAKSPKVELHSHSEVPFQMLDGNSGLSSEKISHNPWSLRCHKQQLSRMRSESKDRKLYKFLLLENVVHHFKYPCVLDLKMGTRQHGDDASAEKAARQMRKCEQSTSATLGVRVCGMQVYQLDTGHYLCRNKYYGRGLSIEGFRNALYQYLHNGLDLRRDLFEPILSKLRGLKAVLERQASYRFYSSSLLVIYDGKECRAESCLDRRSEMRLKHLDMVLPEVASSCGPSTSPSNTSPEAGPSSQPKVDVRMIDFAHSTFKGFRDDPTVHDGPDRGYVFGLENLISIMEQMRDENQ
- experimentalDetails: IP6K1 high-throughput screen of the Sigma LOPAC (ADP-Glo Max, single point);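 note: final compound concentration 10µM in 5% DMSO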
- Format: biochemical
- settings: LOPAC single-point screen, ADP-Glo Max raw signal per well
Structures can show the parent of a compound that is named as a salt.
Raw Signal values, listed per item
Would you mind answering with just the numeric figure?

In: Read off the recorded Raw Signal for NS(=O)(=O)Cc1noc2ccccc12 [Zonisamide sodium]
Out: 56166

In: Look up and state reported Raw Signal for CCCN(CCC)[C@@H]1CCc2c(F)ccc(O)c2C1.Cl [R(+)-UH-301 hydrochloride]
Out: 54775

In: Look up and report measured Raw Signal for this entry: CCOC(=O)c1ncn2c1[C@@H]1CCCN1C(=O)c1cc(OC)ccc1-2
Out: 54093

In: Supply recorded Raw Signal for N[C@@H](Cn1cc(I)c(=O)[nH]c1=O)C(=O)O here.
Out: 55016

In: Answer with the recorded Raw Signal of N=C(N)NCCC[C@H](N)C(=O)O only.
Out: 58902

Next:
In: Using known records, supply Raw Signal for O=C(O)/C=C/C(=O)O.O=C(O)/C=C/C(=O)O.O=C(O)/C=C/C(=O)O.O=C1CCCN1CC#CCN1CCCC1.O=C1CCCN1CC#CCN1CCCC1 [Oxotremorine sesquifumarate salt]
Out: 55438

In: Answer with the recorded Raw Signal for the compound listed here: Cl.NCC(O)c1ccc(O)cc1 (racemic) [(±)-Octopamine hydrochloride]
Out: 52629

In: Consider the compound CC(Oc1ccc(Oc2cnc3ccc(Cl)cc3n2)cc1)C(=O)O (centres unmarked) . State its measured Raw Signal.
Out: 55038

In: Note down Raw Signal recorded for CC(C(=O)O)c1cccc(C(=O)c2ccccc2)c1 (centres unmarked)
Out: 53403

In: Return value of Raw Signal for input COc1cc(C(=O)OCCCN2CCCN(CCCOC(=O)c3cc(OC)c(OC)c(OC)c3)CC2)cc(OC)c1OC [Dilazep hydrochloride] , no commentary.
Out: 56027

In: Please look at this compound and report its Raw Signal: NC(=O)c1cc[n+](CC2=C(C(=O)[O-])N3C(=O)[C@@H](NC(=O)C(c4ccccc4)S(=O)(=O)[O-])[C@H]3SC2)cc1.O.[Na+] (some centres unmarked) [Cefsulodin sodium salt hydrate]
Out: 56779

In: Indicate the recorded Raw Signal value for this compound: CCN(CC)C(=O)c1ccc(O)c(OC)c1 [Vanillic acid diethylamide]
Out: 56150

In: State its Raw Signal: NNc1nncc2ccccc12 [Hydralazine hydrochloride]
Out: 53853

In: Report measured Raw Signal; entry is COc1ccc2[nH]cc(CCN)c2c1.Cl [O-Methylserotonin hydrochloride]
Out: 53655

====

- targetUnderTest: Human IP6K1 (Homo sapiens)
- Construct: GST (N, cleaved yes); made in house; host or cells: C43 E. coli, pGEX-6P-2
- experimentalDetails: IP6K1 high-throughput screen of the Sigma LOPAC (ADP-Glo Max, single point);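 note: final compound concentration 10µM in 5% DMSO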
- Format: biochemical
- settings: Sigma LOPAC single-point screen; Z-score from plate average and StDev
propertyMeasured: Z-score
Answer with the value's number alone.

Some solved cases for reference:
In: Please supply the value of reported Z-score for the item Cl.Cl.Fc1ccc(C(OCCN2CCN(CCCc3ccccc3)CC2)c2ccc(F)cc2)cc1 [GBR-12909 dihydrochloride]
Out: 0.9911

In: Return the recorded Z-score value; entry: NCCCC(=O)O
Out: 0.9926

In: In one line, give reported Z-score of the entry COc1ccccc1N1CCN(CCCCNC(=O)c2ccc3ccccc3c2)CC1 .
Out: 0.5335

Further cases:
In: Given the compound NC(N)=NCc1cccc(I)c1.NC(N)=NCc1cccc(I)c1.O=S(=O)(O)O [m-Iodobenzylguanidine hemisulfate] , write its reported Z-score.
Out: 1.022

In: State its Z-score for this compound: Cl.Cl.NCCNS(=O)(=O)c1cccc2cnccc12 [H-9 dihydrochloride]
Out: 1.138

In: Entry COc1cc(Cc2cnc(N)nc2N)cc(OC)c1OC needs its Z-score filled in; supply it.
Out: 1.118
